Entries and their pEC50
- Assay target: recombinant DYRK1A kinase (Homo sapiens (Human), UniProt Q13627)
- Procedure details: DYRK1A kinase assay (Ser/Thr 18 peptide Z-lyte, FRET)
- Measurement context: DYRK1A kinase; head says EC50, method says IC50; ATP 30 μM
pEC50: −log10 of the molar value.
Measured quantity: pEC50

Smiles notation | Assay target | Measurement qualifier | Recorded measurement
CN1CCC(C(=O)Nc2cc3cc(-c4cncc(N5CCCC5)c4)ccc3cn2)CC1 | recombinant DYRK1A kinase (Homo sapiens (Human), UniProt Q13627) | = | 7.60
CN1CCN(c2cc(C(=O)Nc3cc4cc(-c5cncc(C(F)F)c5)ccc4cn3)ccn2)CC1 | recombinant DYRK1A kinase (Homo sapiens (Human), UniProt Q13627) | = | 7.96
Cc1c[nH]c2ncc(-c3ccc4cnc(NC(=O)c5ccnc(N6CCN(C)CC6)c5)cc4c3)cc12 | recombinant DYRK1A kinase (Homo sapiens (Human), UniProt Q13627) | = | 7.27
O=C(CN1CCCC1)Nc1cc2cc(-c3cnccn3)ccc2cn1 | recombinant DYRK1A kinase (Homo sapiens (Human), UniProt Q13627) | = | 7.03
CN1CCN(c2cc(C(=O)Nc3cc4cc(-c5cncc(Cl)c5)ccc4cn3)ccn2)CC1 | recombinant DYRK1A kinase (Homo sapiens (Human), UniProt Q13627) | < | 5.00
CC(C)Nc1cc(F)cc(-c2ccc3cnc(NC(=O)c4ccnc(N5CCN(C)CC5)c4)cc3c2)c1 | recombinant DYRK1A kinase (Homo sapiens (Human), UniProt Q13627) | = | 6.45
CN1CCC(C(=O)Nc2cc3cc(-c4cncc(C#N)c4)ccc3cn2)CC1 | recombinant DYRK1A kinase (Homo sapiens (Human), UniProt Q13627) | = | 7.24
O=C(Nc1cc2cc(-c3cncc(NC4CCNCC4)n3)ccc2cn1)C1CCOCC1 | recombinant DYRK1A kinase (Homo sapiens (Human), UniProt Q13627) | = | 8.70

====

- Assay target: recombinant GSK3β kinase (Homo sapiens (Human), UniProt P49841)
- Sequence (P49841 whole entry): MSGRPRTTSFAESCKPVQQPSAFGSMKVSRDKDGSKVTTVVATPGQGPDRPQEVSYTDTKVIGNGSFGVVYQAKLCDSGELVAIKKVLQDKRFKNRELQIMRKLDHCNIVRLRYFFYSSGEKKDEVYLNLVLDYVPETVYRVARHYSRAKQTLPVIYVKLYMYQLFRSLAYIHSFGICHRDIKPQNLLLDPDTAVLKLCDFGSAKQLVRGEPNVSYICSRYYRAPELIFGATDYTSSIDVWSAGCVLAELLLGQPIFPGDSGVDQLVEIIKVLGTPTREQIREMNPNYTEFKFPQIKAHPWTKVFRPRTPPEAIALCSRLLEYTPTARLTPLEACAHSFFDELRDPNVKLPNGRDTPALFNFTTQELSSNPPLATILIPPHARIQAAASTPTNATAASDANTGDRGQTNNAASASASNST
- Procedure details: GSK3β kinase assay (Ser/Thr 09 peptide Z-lyte, FRET)
- Format: biochemical
- Measurement context: GSK3β kinase; head says EC50, method says IC50; ATP 46 μM
# EC50 per record follows
Measured quantity: EC50

Molecule | Recorded measurement
CN1CCN(c2cc(C(=O)Nc3cc4cc(-c5cnc6[nH]ccc6c5)ccc4cn3)ccn2)CC1 | > 10 µM
CN1CCC(c2cccc(C(=O)Nc3cc4cc(-c5cncc(C(F)F)c5)ccc4cn3)c2)CC1 | > 10 µM
CC(C)Nc1cncc(-c2ccc3cnc(NC(=O)c4cccc(C5CCNCC5)c4)cc3c2)c1 | > 10 µM
Cc1cc2ncc(-c3ccc4cnc(NC(=O)c5ccnc(N6CCN(C)CC6)c5)cc4c3)cc2[nH]1 | > 10 µM
CC(C)CN1CCCC(C(=O)Nc2cc3cc(-c4cnccn4)ccc3cn2)CC1 (stereo not shown) | 1.3 µM
Nc1cncc(-c2ccc3cnc(NC(=O)c4ccc(F)cc4)cc3c2)c1 | 8.86 µM
O=C(Nc1cc2cc(-c3cncc(OC4CNC4)n3)ccc2cn1)c1ccc(F)cc1 | > 10 µM
O=C(Nc1cc2cc(-c3cncc(NC4CCNCC4)n3)ccc2cn1)C1CCCCC1 | 0.193 µM
CC(C)N1CCN(c2cc(C(=O)Nc3cc4cc(-c5cncc(NC(C)(C)C)n5)ccc4cn3)ccn2)CC1 | > 10 µM
Cc1cc2cc(-c3ccc4cnc(NC(=O)c5ccnc(N6CCN(C)CC6)c5)cc4c3)cnc2[nH]1 | > 10 µM
CN1CCC(F)(C(=O)Nc2cc3cc(-c4cnccn4)ccc3cn2)CC1 | > 10 µM
CN1CCC(n2cc(C(=O)Nc3cc4cc(-c5cnc6[nH]ccc6c5)ccc4cn3)cn2)CC1 | > 10 µM
CN1CCN(c2cc(C(=O)Nc3cc4cc(-c5cnc6cc[nH]c6n5)ccc4cn3)ccn2)CC1 | > 10 µM
CN1CCC(C(=O)Nc2cc3cc(-c4cncc(N5CCCC5)c4)ccc3cn2)CC1 | 0.725 µM
O=C(Nc1cc2cc(-c3cncc(NC4CCNCC4)n3)ccc2cn1)C1CC(F)(F)C1 | 0.05 µM
CN1CCN(c2cc(C(=O)Nc3cc4cc(-c5cncc(N6CCCC6)n5)ccc4cn3)ccn2)CC1 | > 10 µM

====

- Assay target: recombinant DYRK1A kinase (Homo sapiens (Human), UniProt Q13627)
- Procedure details: DYRK1A kinase assay (Ser/Thr 18 peptide Z-lyte, FRET)
pEC50: −log10 of the molar value.
Measured quantity: pEC50

Smiles notation | Recorded measurement
CN(C)[C@H]1CC[C@H](C(=O)Nc2cc3cc(-c4cnccn4)ccc3cn2)CC1 | 7.77
O=C(Nc1cc2cc(-c3cncc(NC4CCNCC4)c3)ccc2cn1)c1ccc(F)cc1 | 8.05
O=C(CN1CCOCC1)Nc1cc2cc(-c3ccnnc3)ccc2cn1 | 7.54
[2H]C1([2H])OC([2H])([2H])C([2H])([2H])N(CC(=O)Nc2cc3cc(-c4cccnc4)ccc3cn2)C1([2H])[2H] | 7.89
CC(C)N1CCC(c2nc(C(=O)Nc3cc4cc(-c5cncc(F)c5)ccc4cn3)co2)CC1 | 5.79
O=C(Nc1cc2cc(-c3cncc(N[C@H]4CCNC[C@@H]4F)n3)ccc2cn1)C1CC1 | 9.00
[2H]c1nc([2H])c(-c2ccc3cnc(NC(=O)CN4CCN(C)CC4)cc3c2)c([2H])c1[2H] | 7.96
O=C(Nc1cc2cc(-c3cnccn3)ccc2cn1)[C@H]1CC[C@H](CN2CC(F)C2)CC1 | 8.15
CN1CCC(C(=O)Nc2cc3cc(-c4cncc(CO)c4)ccc3cn2)CC1 | 8.52
O=C(CN1CCOCC1)Nc1cc2cc(-c3cccnn3)ccc2cn1 | 6.91
O=C(CCN1CCOCC1)Nc1cc2cc(-c3cncc(F)c3)ccc2cn1 | 7.77
CC(C)Nc1cncc(-c2ccc3cnc(NC(=O)C4CNC4)cc3c2)n1 | 9.00
O=C(Nc1cc2cc(-c3cncc(NC4CCNCC4)n3)ccc2cn1)C1CCC1 | 9.00
[2H]c1nc([2H])c(-c2ccc3cnc(NC(=O)CN4CCCC4)cc3c2)c([2H])c1[2H] | 8.00
CN1CCC(C(=O)Nc2cc3cc(-c4cnccn4)ccc3cn2)CC1 | 8.00
CN1CCC(Nc2cncc(-c3ccc4cnc(NC(=O)c5ccc(F)cc5)cc4c3)n2)CC1 | 9.00
CN1CCN(c2cc(C(=O)Nc3cc4cc(-c5ccncc5)ccc4cn3)ccn2)CC1 | 7.74

====

Listed below: pEC50 values for each entry.
- Assay target: recombinant GSK3β kinase (Homo sapiens (Human), UniProt P49841)
- Procedure details: GSK3β kinase assay (Ser/Thr 09 peptide Z-lyte, FRET);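 further: FRET read-out as coumarin over fluorescein emission ratio, compounds incubated one hour at room temperature, IC50 from dose-response curve fit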
- Format: biochemical
- Measurement context: GSK3β kinase; head says EC50, method says IC50; ATP 46 μM
pEC50: −log10 of the molar value.
Measured quantity: pEC50

Compound | Measurement qualifier | Recorded measurement
CC(C)Nc1cncc(-c2ccc3cnc(NC(=O)C4CCN(C(C)C)CC4)cc3c2)n1 [Compound 90] | = | 8.00
O=C(CN1CCCC1)Nc1cc2cc(-c3cnccn3)ccc2cn1 [Compound 74] | = | 5.77
CN1CCN(c2cc(C(=O)Nc3cc4cc(-c5cnc6ocnc6c5)ccc4cn3)ccn2)CC1 [Compound 132] | < | 5.00
CC(C)(C)Nc1cncc(-c2ccc3cnc(NC(=O)c4ccnc(N5CCOCC5)c4)cc3c2)n1 [Compound 102] | < | 5.00
CN1CCN(c2cc(C(=O)Nc3cc4cc(-c5cncc(Cl)c5)ccc4cn3)ccn2)CC1 [Compound 25] | < | 5.00
CN1CCN(CC(=O)Nc2cc3cc(-c4cccnc4)ccc3cn2)CC1 [Compound 11] | = | 5.95
CN1CCN(CC(=O)Nc2cc3cc(-c4ccc(F)nc4)ccc3cn2)CC1 [Compound 21] | = | 5.49
CN(C)C1CN(c2cc(C(=O)Nc3cc4cc(-c5cncc(NC(C)(C)C)n5)ccc4cn3)ccn2)C1 [Compound 98] | = | 5.32

====

- Assay target: recombinant DYRK1A kinase (Homo sapiens (Human), UniProt Q13627)
- Procedure details: DYRK1A kinase assay (Ser/Thr 18 peptide Z-lyte, FRET)
- Measurement context: DYRK1A kinase; head says EC50, method says IC50; ATP 30 μM
Measured quantity: EC50 (nM)

Smiles notation | Recorded measurement
CNC(=O)c1cncc(-c2ccc3cnc(NC(=O)c4ccnc(N5CCN(C)CC5)c4)cc3c2)c1 | 6
O=C(Nc1cc2cc(-c3cncc(N[C@H]4CCNC[C@@H]4F)n3)ccc2cn1)c1ccc(F)cc1 | 8
CN1CCN(c2cc(C(=O)Nc3cc4cc(-c5cncc(F)c5)ccc4cn3)ccn2)CC1 | 11
Cc1cc2cc(-c3ccc4cnc(NC(=O)c5ccnc(N6CCN(C)CC6)c5)cc4c3)cnc2[nH]1 | 57
O=C(CN1CCCC1)Nc1cc2cc(-c3cccnc3)ccc2cn1 | 7
Nc1cncc(-c2ccc3cnc(NC(=O)c4coc(C5CCNCC5)n4)cc3c2)c1 | 12
CN1CCC(Nc2cncc(-c3ccc4cnc(NC(=O)C5CCC5)cc4c3)n2)CC1 | 1
CN1CCC(c2nc(C(=O)Nc3cc4cc(-c5cncc(F)c5)ccc4cn3)co2)CC1 | 6800
